# experiment_description: Pharmacokinetics of the compounds in SD rats (Example 36)
# Format: in vivo
# study_conditions: Intravenous injection administration - 1 mg/kg; SD rat plasma
Label rule, in plain words: AUC(0-inf) of 1000 ng·h/mL and up is 1, under 1000 ng·h/mL is -1.

Worked cases, answers included:
CCOC(=O)OC(C)OC(=O)c1ccnc(-c2ccc3c(c2)c(C#N)nn3C(C)C)c1 (stereo not drawn) [Compound 26] : 1
CCOC(=O)c1cnn(-c2ccc3c(c2)c(C#N)nn3C(C)C)c1 [Compound 2] : 1
CC(=O)OCCOC(=O)c1ccnc(-c2ccc3c(c2)c(C#N)nn3C(C)C)c1 [Compound 28] : -1
CC(C)OC(=O)c1cnn(-c2ccc3c(c2)c(C#N)nn3C(C)C)c1 [Compound 7] : -1
CC(C)n1nc(C#N)c2cc(-c3cc(C(=O)OCCCCO[N+](=O)[O-])ccn3)ccc21 [Compound 39] : -1
CC(C)n1nc(C#N)c2cc(-c3cc(C(=O)Oc4cccc(CO[N+](=O)[O-])c4)ccn3)ccc21 [Compound 42] : -1

Request: I'd appreciate it if you could say whether COC(=O)c1cnn(-c2ccc3c(c2)c(C#N)nn3C(C)C)c1 [Compound 5] has AUC(0-inf) at least equal to 1000 ng·h/mL.
Response: 1

Request: Quick check: does COC(=O)c1ccnc(-c2ccc3c(c2)c(C#N)nn3C(C)C)c1 [Compound 19] have AUC(0-inf) greater than or equal to 1000 ng·h/mL?
Response: -1

----------
I'd be grateful if you could share measured Uric acid 3 h for these entries.
# System: potassium oxonate-induced hyperuricemic rats
# experiment_description: Serum uric acid in potassium oxonate-induced hyperuricemic rats, 3 days of gavage (Example 35)
# Type: in vivo, SD rats
# study_conditions: serum; 2 mg/kg gavage for 3 days; day 3, 3 h after potassium oxonate injection; mean ± SD
# Protocol: Compound 13 was a light yellow powder, and compounds 38 and 41 are pseudo-white powders, which are triturated with 0.5% CMC-Na just prior to use to prepare a 0.4 mg/mL suspension for gavage. 36 male SD rats weighed approximately 220-240 g after one week of adaptation. […] The drugs in each group were prepared into a corresponding concentration suspension, and the administration volume was 0.5 mL/100 g. […] The measurement data of each test were expressed as (mean)±standard deviation). […]
Answers are plain numbers, in µmol/L.

Examples with their reported Uric acid 3 h follow.
CC(C)n1nc(C#N)c2cc(-n3cc(C(=O)Oc4cccc(CO[N+](=O)[O-])c4)cn3)ccc21 : 72.2
CC(C)n1nc(C#N)c2cc(-n3cc(C(=O)OCCCCO[N+](=O)[O-])cn3)ccc21 : 69.0
Cc1nc(-c2ccc(OCC(C)C)c(C#N)c2)sc1C(=O)O [Febuxostat, reference compound] : 31.2

Now let's try a different one.
Request: What does the data say about its Uric acid 3 h? Entry: CC(C)=CCC/C(C)=C/CC/C(C)=C/COC(=O)c1cnn(-c2ccc3c(c2)c(C#N)nn3C(C)C)c1
Response: 66.0

----------
# experiment_description: Pharmacokinetics of the compounds in SD rats (Example 36)
# Assay type: in vivo
# study_conditions: Intravenous injection administration - 1 mg/kg; SD rat plasma
Where a name gives a salt, the structure may show the parent alone.
reported_endpoint: half-life (h)
Give bare numbers, in h.

CCOC(=O)OC(C)OC(=O)c1ccnc(-c2ccc3c(c2)c(C#N)nn3C(C)C)c1 (stereo not drawn) : 7.11
COC(=O)c1ccnc(-c2ccc3c(c2)c(C#N)nn3C(C)C)c1 : 8.78
COCCOC(=O)c1ccnc(-c2ccc3c(c2)c(C#N)nn3C(C)C)c1 [Compound 31, hydrobromide] : 9.03
CCOC(=O)c1cnn(-c2ccc3c(c2)c(C#N)nn3C(C)C)c1 : 6.12
CC(C)n1nc(C#N)c2cc(-c3cc(C(=O)Oc4cccc(CO[N+](=O)[O-])c4)ccn3)ccc21 : 6.44

Give half-life for all molecules that follow.
1. CC(=O)OCCOC(=O)c1ccnc(-c2ccc3c(c2)c(C#N)nn3C(C)C)c1
2. CC(C)OC(=O)c1cnn(-c2ccc3c(c2)c(C#N)nn3C(C)C)c1
3. CC(C)n1nc(C#N)c2cc(-c3cc(C(=O)OCCCCO[N+](=O)[O-])ccn3)ccc21
4. COC(=O)c1cnn(-c2ccc3c(c2)c(C#N)nn3C(C)C)c1

Response:
[8.21, 8.6, 9.92, 7.45]

----------
# experiment_description: Pharmacokinetics of the compounds in SD rats (Example 36)
# Format: in vivo
# study_conditions: po; Gavage administration - 10 mg/kg; SD rat plasma
Counter-ions that a name gives are not always drawn.
Assign half-life to each entry below.
One number for each entry, in min.

CC(C)OC(=O)c1cnn(-c2ccc3c(c2)c(C#N)nn3C(C)C)c1 : 196

Give half-life for each of the items listed below.
1. CC(C)n1nc(C#N)c2cc(-c3cc(C(=O)OCCCCO[N+](=O)[O-])ccn3)ccc21
2. COC(=O)c1cnn(-c2ccc3c(c2)c(C#N)nn3C(C)C)c1
3. CC(C)n1nc(C#N)c2cc(-c3cc(C(=O)Oc4cccc(CO[N+](=O)[O-])c4)ccn3)ccc21
4. COC(=O)c1ccnc(-c2ccc3c(c2)c(C#N)nn3C(C)C)c1
5. COCCOC(=O)c1ccnc(-c2ccc3c(c2)c(C#N)nn3C(C)C)c1 [Compound 31, hydrobromide]
6. CC(=O)OCCOC(=O)c1ccnc(-c2ccc3c(c2)c(C#N)nn3C(C)C)c1
7. CCOC(=O)OC(C)OC(=O)c1ccnc(-c2ccc3c(c2)c(C#N)nn3C(C)C)c1 (stereo not drawn)
8. CCOC(=O)c1cnn(-c2ccc3c(c2)c(C#N)nn3C(C)C)c1

Response:
[182, 227, 175, 140, 165, 176, 151, 175]

----------
Hi there, I'd appreciate the recorded Tmax for every entry that follows.
# experiment_description: Pharmacokinetics of the compounds in SD rats (Example 36)
# Assay type: in vivo
# study_conditions: po; Gavage administration - 10 mg/kg; SD rat plasma
Where a name gives a salt, the structure may show the parent alone.
Numbers only, in min.

CCOC(=O)OC(C)OC(=O)c1ccnc(-c2ccc3c(c2)c(C#N)nn3C(C)C)c1 (stereo not drawn) : 55
COC(=O)c1cnn(-c2ccc3c(c2)c(C#N)nn3C(C)C)c1 : 70.2
CC(C)n1nc(C#N)c2cc(-c3cc(C(=O)Oc4cccc(CO[N+](=O)[O-])c4)ccn3)ccc21 : 94.8
COCCOC(=O)c1ccnc(-c2ccc3c(c2)c(C#N)nn3C(C)C)c1 [Compound 31, hydrobromide] : 120
CC(=O)OCCOC(=O)c1ccnc(-c2ccc3c(c2)c(C#N)nn3C(C)C)c1 : 130

Parameter requested: Tmax. Apply to each item below.
1. COC(=O)c1ccnc(-c2ccc3c(c2)c(C#N)nn3C(C)C)c1
2. CC(C)n1nc(C#N)c2cc(-c3cc(C(=O)OCCCCO[N+](=O)[O-])ccn3)ccc21
3. CCOC(=O)c1cnn(-c2ccc3c(c2)c(C#N)nn3C(C)C)c1
4. CC(C)OC(=O)c1cnn(-c2ccc3c(c2)c(C#N)nn3C(C)C)c1

Response:
[40, 30, 40, 30]

----------
# experiment_description: Pharmacokinetics of the compounds in SD rats (Example 36)
# Type: in vivo
# study_conditions: Intravenous injection administration - 1 mg/kg; SD rat plasma
Counter-ions that a name gives are not always drawn.
reported_endpoint: MRT inf (h)
Numbers only, in h.

Record excerpt, results attached:
CC(C)n1nc(C#N)c2cc(-c3cc(C(=O)OCCCCO[N+](=O)[O-])ccn3)ccc21 [Compound 39] : 7.16
CCOC(=O)OC(C)OC(=O)c1ccnc(-c2ccc3c(c2)c(C#N)nn3C(C)C)c1 (stereo not drawn) [Compound 26] : 2.47
COCCOC(=O)c1ccnc(-c2ccc3c(c2)c(C#N)nn3C(C)C)c1 [Compound 31, hydrobromide] : 4.75
CC(C)OC(=O)c1cnn(-c2ccc3c(c2)c(C#N)nn3C(C)C)c1 [Compound 7] : 7.65
CCOC(=O)c1cnn(-c2ccc3c(c2)c(C#N)nn3C(C)C)c1 [Compound 2] : 5.05
CC(=O)OCCOC(=O)c1ccnc(-c2ccc3c(c2)c(C#N)nn3C(C)C)c1 [Compound 28] : 4.31

Hi! Can you tell me MRT inf for each of these compounds?
1. COC(=O)c1cnn(-c2ccc3c(c2)c(C#N)nn3C(C)C)c1 [Compound 5]
2. COC(=O)c1ccnc(-c2ccc3c(c2)c(C#N)nn3C(C)C)c1 [Compound 19]
3. CC(C)n1nc(C#N)c2cc(-c3cc(C(=O)Oc4cccc(CO[N+](=O)[O-])c4)ccn3)ccc21 [Compound 42]

Response:
1: 8.38; 2: 6.46; 3: 3.37

----------
# Test system: potassium oxonate-induced hyperuricemic rats
# experiment_description: Serum uric acid in potassium oxonate-induced hyperuricemic rats, 3 days of gavage (Example 35)
# Assay type: in vivo, SD rats
# study_conditions: serum; 2 mg/kg gavage for 3 days; day 3, 5 h after potassium oxonate injection; mean ± SD
# Protocol: Compound 13 was a light yellow powder, and compounds 38 and 41 are pseudo-white powders, which are triturated with 0.5% CMC-Na just prior to use to prepare a 0.4 mg/mL suspension for gavage. 36 male SD rats weighed approximately 220-240 g after one week of adaptation. […] The drugs in each group were prepared into a corresponding concentration suspension, and the administration volume was 0.5 mL/100 g. […] The measurement data of each test were expressed as (mean)±standard deviation). […]
Answer each item with its documented Uric acid 5 h.

Worked cases, Uric acid 5 h given:
CC(C)=CCC/C(C)=C/CC/C(C)=C/COC(=O)c1cnn(-c2ccc3c(c2)c(C#N)nn3C(C)C)c1 [Compound 13] : 75.0 ± 7.1 µmol/L
Cc1nc(-c2ccc(OCC(C)C)c(C#N)c2)sc1C(=O)O [Febuxostat, reference compound] : 24.7 ± 4.7 µmol/L

Hello, I would appreciate it if you could give Uric acid 5 h for each entry below.
1. CC(C)n1nc(C#N)c2cc(-n3cc(C(=O)OCCCCO[N+](=O)[O-])cn3)ccc21 [Compound 38]
2. CC(C)n1nc(C#N)c2cc(-n3cc(C(=O)Oc4cccc(CO[N+](=O)[O-])c4)cn3)ccc21 [Compound 41]

Response:
["51.7 ± 6.7 µmol/L", "55.4 ± 14.9 µmol/L"]
